tested on: Escherichia coli TOP10; assay: shrunken log2 fold change of peptide-encoding DNA abundance (4.5 h post-induction vs induction); higher = less antimicrobial activity (less host growth inhibition); settings: time post-induction: 4.5 h; library: site-saturation at positions 5, 18, 19, 20;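 also: peptides expressed intracellularly from a pBAD plasmid library in pooled LB shake-flask culture, induced with 0.3% L-arabinose, DNA abundance read by NGS, three biological replicates, DESeq2 with apeglm shrinkage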
Threshold check on shrunken log2 fold change: at or above 0.005 gives yes, strictly below gives no.

[
  {
    "RECORD_SEQUENCE": "RRIRDRPPRLPRPRPRPHTRPRP",
    "LABEL_VALUE": "yes"
  },
  {
    "RECORD_SEQUENCE": "RRIRLRPPRLPRPRPRPMNKPRP",
    "LABEL_VALUE": "no"
  },
  {
    "RECORD_SEQUENCE": "RRIRARPPRLPRPRPRPMFGPRP",
    "LABEL_VALUE": "yes"
  },
  {
    "RECORD_SEQUENCE": "RRIRRRPPRLPRPRPRPMWMPRP",
    "LABEL_VALUE": "yes"
  },
  {
    "RECORD_SEQUENCE": "RRIRRRPPRLPRPRPRPLSWPRP",
    "LABEL_VALUE": "yes"
  },
  {
    "RECORD_SEQUENCE": "RRIRDRPPRLPRPRPRPEPPPRP",
    "LABEL_VALUE": "yes"
  },
  {
    "RECORD_SEQUENCE": "RRIRMRPPRLPRPRPRPPVDPRP",
    "LABEL_VALUE": "yes"
  },
  {
    "RECORD_SEQUENCE": "RRIRARPPRLPRPRPRPEQQPRP",
    "LABEL_VALUE": "yes"
  },
  {
    "RECORD_SEQUENCE": "RRIRQRPPRLPRPRPRPWGGPRP",
    "LABEL_VALUE": "yes"
  },
  {
    "RECORD_SEQUENCE": "RRIRTRPPRLPRPRPRPIICPRP",
    "LABEL_VALUE": "no"
  },
  {
    "RECORD_SEQUENCE": "RRIRYRPPRLPRPRPRPQKTPRP",
    "LABEL_VALUE": "no"
  },
  {
    "RECORD_SEQUENCE": "RRIRDRPPRLPRPRPRPAKWPRP",
    "LABEL_VALUE": "yes"
  },
  {
    "RECORD_SEQUENCE": "RRIRIRPPRLPRPRPRPPKEPRP",
    "LABEL_VALUE": "no"
  },
  {
    "RECORD_SEQUENCE": "RRIRLRPPRLPRPRPRPWEEPRP",
    "LABEL_VALUE": "no"
  },
  {
    "RECORD_SEQUENCE": "RRIRVRPPRLPRPRPRPAWLPRP",
    "LABEL_VALUE": "yes"
  },
  {
    "RECORD_SEQUENCE": "RRIRCRPPRLPRPRPRPMLCPRP",
    "LABEL_VALUE": "yes"
  },
  {
    "RECORD_SEQUENCE": "RRIRERPPRLPRPRPRPTKTPRP",
    "LABEL_VALUE": "no"
  },
  {
    "RECORD_SEQUENCE": "RRIRPRPPRLPRPRPRPQANPRP",
    "LABEL_VALUE": "no"
  },
  {
    "RECORD_SEQUENCE": "RRIRWRPPRLPRPRPRPECLPRP",
    "LABEL_VALUE": "yes"
  },
  {
    "RECORD_SEQUENCE": "RRIRDRPPRLPRPRPRPFCYPRP",
    "LABEL_VALUE": "yes"
  },
  {
    "RECORD_SEQUENCE": "RRIRGRPPRLPRPRPRPQPFPRP",
    "LABEL_VALUE": "no"
  },
  {
    "RECORD_SEQUENCE": "RRIRDRPPRLPRPRPRPLLQPRP",
    "LABEL_VALUE": "yes"
  },
  {
    "RECORD_SEQUENCE": "RRIRHRPPRLPRPRPRPFSDPRP",
    "LABEL_VALUE": "no"
  },
  {
    "RECORD_SEQUENCE": "RRIRSRPPRLPRPRPRPESMPRP",
    "LABEL_VALUE": "yes"
  },
  {
    "RECORD_SEQUENCE": "RRIRDRPPRLPRPRPRPISTPRP",
    "LABEL_VALUE": "no"
  },
  {
    "RECORD_SEQUENCE": "RRIRCRPPRLPRPRPRPCYWPRP",
    "LABEL_VALUE": "no"
  },
  {
    "RECORD_SEQUENCE": "RRIRKRPPRLPRPRPRPVARPRP",
    "LABEL_VALUE": "yes"
  },
  {
    "RECORD_SEQUENCE": "RRIRLRPPRLPRPRPRPKVEPRP",
    "LABEL_VALUE": "no"
  },
  {
    "RECORD_SEQUENCE": "RRIRQRPPRLPRPRPRPKFNPRP",
    "LABEL_VALUE": "no"
  },
  {
    "RECORD_SEQUENCE": "RRIRSRPPRLPRPRPRPFDAPRP",
    "LABEL_VALUE": "no"
  },
  {
    "RECORD_SEQUENCE": "RRIRNRPPRLPRPRPRPWNFPRP",
    "LABEL_VALUE": "no"
  },
  {
    "RECORD_SEQUENCE": "RRIRFRPPRLPRPRPRPPPMPRP",
    "LABEL_VALUE": "yes"
  },
  {
    "RECORD_SEQUENCE": "RRIRYRPPRLPRPRPRPMTYPRP",
    "LABEL_VALUE": "no"
  },
  {
    "RECORD_SEQUENCE": "RRIRRRPPRLPRPRPRPCIAPRP",
    "LABEL_VALUE": "no"
  },
  {
    "RECORD_SEQUENCE": "RRIRKRPPRLPRPRPRPQCGPRP",
    "LABEL_VALUE": "yes"
  },
  {
    "RECORD_SEQUENCE": "RRIRSRPPRLPRPRPRPDDCPRP",
    "LABEL_VALUE": "no"
  },
  {
    "RECORD_SEQUENCE": "RRIRTRPPRLPRPRPRPNSFPRP",
    "LABEL_VALUE": "no"
  },
  {
    "RECORD_SEQUENCE": "RRIRSRPPRLPRPRPRPPSCPRP",
    "LABEL_VALUE": "no"
  },
  {
    "RECORD_SEQUENCE": "RRIRYRPPRLPRPRPRPAVMPRP",
    "LABEL_VALUE": "no"
  },
  {
    "RECORD_SEQUENCE": "RRIRNRPPRLPRPRPRPPSMPRP",
    "LABEL_VALUE": "no"
  },
  {
    "RECORD_SEQUENCE": "RRIRQRPPRLPRPRPRPWALPRP",
    "LABEL_VALUE": "no"
  },
  {
    "RECORD_SEQUENCE": "RRIRYRPPRLPRPRPRPVCYPRP",
    "LABEL_VALUE": "no"
  },
  {
    "RECORD_SEQUENCE": "RRIRQRPPRLPRPRPRPEYFPRP",
    "LABEL_VALUE": "no"
  },
  {
    "RECORD_SEQUENCE": "RRIRWRPPRLPRPRPRPMRTPRP",
    "LABEL_VALUE": "yes"
  },
  {
    "RECORD_SEQUENCE": "RRIRSRPPRLPRPRPRPKICPRP",
    "LABEL_VALUE": "no"
  },
  {
    "RECORD_SEQUENCE": "RRIRERPPRLPRPRPRPMHTPRP",
    "LABEL_VALUE": "yes"
  },
  {
    "RECORD_SEQUENCE": "RRIRCRPPRLPRPRPRPVPGPRP",
    "LABEL_VALUE": "yes"
  },
  {
    "RECORD_SEQUENCE": "RRIRIRPPRLPRPRPRPAITPRP",
    "LABEL_VALUE": "no"
  },
  {
    "RECORD_SEQUENCE": "RRIRDRPPRLPRPRPRPVYKPRP",
    "LABEL_VALUE": "no"
  },
  {
    "RECORD_SEQUENCE": "RRIRIRPPRLPRPRPRPAAEPRP",
    "LABEL_VALUE": "yes"
  },
  {
    "RECORD_SEQUENCE": "RRIRRRPPRLPRPRPRPRREPRP",
    "LABEL_VALUE": "yes"
  },
  {
    "RECORD_SEQUENCE": "RRIRHRPPRLPRPRPRPSQAPRP",
    "LABEL_VALUE": "no"
  },
  {
    "RECORD_SEQUENCE": "RRIRKRPPRLPRPRPRPDLHPRP",
    "LABEL_VALUE": "no"
  },
  {
    "RECORD_SEQUENCE": "RRIRARPPRLPRPRPRPMTIPRP",
    "LABEL_VALUE": "no"
  },
  {
    "RECORD_SEQUENCE": "RRIRNRPPRLPRPRPRPMMSPRP",
    "LABEL_VALUE": "yes"
  },
  {
    "RECORD_SEQUENCE": "RRIRWRPPRLPRPRPRPPSYPRP",
    "LABEL_VALUE": "no"
  },
  {
    "RECORD_SEQUENCE": "RRIRWRPPRLPRPRPRPSKAPRP",
    "LABEL_VALUE": "no"
  },
  {
    "RECORD_SEQUENCE": "RRIRGRPPRLPRPRPRPYCSPRP",
    "LABEL_VALUE": "no"
  },
  {
    "RECORD_SEQUENCE": "RRIRHRPPRLPRPRPRPNNRPRP",
    "LABEL_VALUE": "no"
  },
  {
    "RECORD_SEQUENCE": "RRIRTRPPRLPRPRPRPHVVPRP",
    "LABEL_VALUE": "no"
  },
  {
    "RECORD_SEQUENCE": "RRIRSRPPRLPRPRPRPPQHPRP",
    "LABEL_VALUE": "yes"
  },
  {
    "RECORD_SEQUENCE": "RRIRRRPPRLPRPRPRPPASPRP",
    "LABEL_VALUE": "yes"
  }
]
